experimental system: κ-opioid receptor (Homo sapiens (Human))
experiment description: κ-opioid receptor [35S]GTPγS functional assay, U-2 OS cells (Table 5)
Format: biochemical
test settings: relative to U69,593
Provide the recorded Emax for the entries that follow.
Numbers only, in %.

Recorded results for 4 molecules are shown here.
**Q:** Quick one: Emax for O=C(NCc1ccc(O)cc1)[C@@H]1C[C@]23CCN(CC4CC4)[C@H](Cc4ccc(O)cc42)[C@]3(O)C1 [Compound 39] ?
**A:** 91.7

**Q:** Another: O=C([C@@H]1C[C@]23CCN(CC4CC4)[C@H](Cc4ccc(O)cc42)[C@]3(O)C1)N1CCOCC1 [Compound 58]
**A:** 93.7

**Q:** And the next one, CN1CC[C@]23C[C@H](C(N)=O)C[C@@]2(O)[C@H]1Cc1ccc(O)cc13 [Compound 78] ?
**A:** 89.7

**Q:** Item: O=C(NCc1ccc(O)cc1)[C@H]1C[C@]23CCN(CC4CC4)[C@H](Cc4ccc(O)cc42)[C@]3(O)C1 [Compound 40]
**A:** 97.7

// each molecule listed below needs its Emax
1. O=C(NCCc1ccccc1)[C@@H]1C[C@]23CCN(CC4CC4)[C@H](Cc4ccc(O)cc42)[C@]3(O)C1 [Compound 50]
2. N=C(N)NCCNC(=O)[C@@H]1C[C@]23CCN(CC4CC4)[C@H](Cc4ccc(O)cc42)[C@]3(O)C1 [Compound 6]
3. O=C(NCc1cc(F)cc(F)c1)[C@@H]1C[C@]23CCN(CC4CC4)[C@H](Cc4ccc(O)cc42)[C@]3(O)C1 [Compound 49]
4. COc1ccc2c(c1)[C@]13CCN(CC4CC4)[C@H](C2)[C@]1(O)C[C@@H](C#N)C3 [Compound 26]
5. NC(=O)[C@H]1C[C@]23CCN(CC(F)(F)F)[C@H](Cc4ccc(O)cc42)[C@]3(O)C1 [Compound 76]
6. O=C(NCc1ccccc1)[C@H]1C[C@]23CCN(CC4CC4)[C@H](Cc4ccc(O)cc42)[C@]3(O)C1 [Compound 34]
7. COc1ccc2c(c1)[C@]13CCN(CC4CC4)[C@H](C2)[C@]1(O)C[C@H](C(=O)N1CCCC1)C3 [Compound 19]
8. O=C(NCc1ccc(O)cc1O)[C@@H]1C[C@]23CCN(CC4CC4)[C@H](Cc4ccc(O)cc42)[C@]3(O)C1 [Compound 41]

**A:**
1: 108; 2: 98; 3: 108; 4: 106; 5: 81; 6: 93.3; 7: 97.7; 8: 86.7

* * *

experimental system: μ-opioid receptor (Homo sapiens (Human), UniProt P35372)
experiment description: μ-opioid receptor radioligand binding assay ([3H]-diprenorphine)
test settings: binding affinity
Hi! Could you tag entries with Ki below 10 nM as met, and those at or above as not met? Much appreciated.

Worked set:
**Q:** Determine if O=C(O)[C@@H]1C[C@]23CCN(CC4CC4)[C@H](Cc4ccc(O)cc42)[C@]3(O)C1 [Compound 16] shows Ki strictly lower than 10 nM.
**A:** not met

**Q:** Please give the result for COc1ccc2c(c1)[C@]13CCN(CC4CC4)[C@H](C2)[C@]1(O)C[C@H](C(N)=O)C3 [Compound 11] too.
**A:** not met

**Q:** Record: O=C(NCc1ccc(O)cc1O)[C@H]1C[C@]23CCN(CC4CC4)[C@H](Cc4ccc(O)cc42)[C@]3(O)C1 [Compound 42]
**A:** met

**Q:** Entry COC(=O)[C@@H]1C[C@]23CCN(CC4CC4)[C@H](Cc4ccc(O)cc42)[C@]3(O)C1 [Compound 12] please
**A:** met

**Q:** Another molecule: N=C(N)NCCCCNC(=O)[C@@H]1C[C@]23CCN(CC4CC4)[C@H](Cc4ccc(O)cc42)[C@]3(O)C1 [Compound 7]
**A:** not met

Turning now to a further record.
**Q:** Dear reviewer, please state whether O=C(NCc1ccccc1)[C@@H]1C[C@]23CCN(CC4CC4)[C@H](Cc4ccc(O)cc42)[C@]3(O)C1 [Compound 33] has Ki strictly beneath 10 nM.
**A:** met

* * *

What pEC50 was measured for each of the following?
experimental system: μ-opioid receptor (Homo sapiens (Human), UniProt P35372)
experiment description: μ-opioid receptor [35S]GTPγS functional assay, U-2 OS cells (Table 5)
Type: biochemical
test settings: μ GTP
Give bare numbers, as −log10 of the molar value.

Use these answered entries as a reference point.
**Q:** Recall the recorded pEC50 for O=C(NCc1ccc(Cl)c(Cl)c1)[C@H]1C[C@]23CCN(CC4CC4)[C@H](Cc4ccc(O)cc42)[C@]3(O)C1 [Compound 47] with μ-opioid receptor (Homo sapiens (Human), UniProt P35372) and state it.
**A:** 10.30

**Q:** Again, but for CN1CC[C@]23C[C@H](C(N)=O)C[C@@]2(O)[C@H]1Cc1ccc(O)cc13 [Compound 78]
**A:** 7.05

**Q:** What do we get for O=C(NCc1ccccc1)[C@H]1C[C@]23CCN(CC4CC4)[C@H](Cc4ccc(O)cc42)[C@]3(O)C1 [Compound 34] ?
**A:** 9.60

Next up:
**Q:** API: value(readout= pEC50, system= μ-opioid receptor (Homo sapiens (Human), UniProt P35372), query= O=C(NCc1ccccc1)[C@@H]1C[C@]23CCN(CC4CC4)[C@H](Cc4ccc(O)cc42)[C@]3(O)C1 [Compound 33] )
**A:** 8.42

* * *

Assignment: determine reported EC50 for the given molecules.
experimental system: UniProtKB P35372
experiment description: μ-opioid receptor [35S]GTPγS functional assay, HEK-293 cells (Table 6)
Format: biochemical
test settings: μ GTP
One number for each entry, in nM.

Observe how each entry below is paired with its result.
**Q:** Observed EC50 on UniProtKB P35372 for Cc1c(Cl)cccc1CNC(=O)[C@H]1C[C@]23CCN(CC4CC4)[C@H](Cc4ccc(O)cc42)[C@]3(O)C1 [Compound 138] , please.
**A:** 0.71

**Q:** What about this molecule? CN1CC[C@]23C[C@H](C(=O)NCCc4ccccc4)C[C@@]2(O)[C@H]1Cc1ccc(O)cc13 [Compound 108]
**A:** 12.4

**Q:** Queued: Cc1ccc(CNC(=O)[C@H]2C[C@]34CCN(C)[C@H](Cc5ccc(O)cc53)[C@]4(O)C2)cc1 [Compound 97]
**A:** 28.1

**Q:** // same read-out, input: CN1CC[C@]23C[C@@H](C(=O)NCCc4ccccc4)C[C@@]2(O)[C@H]1Cc1ccc(O)cc13 [Compound 100]
**A:** 1100

**Q:** Try the molecule CN1CC[C@]23C[C@@H](C(=O)NCCO)C[C@@]2(O)[C@H]1Cc1ccc(O)cc13 [Compound 114]
**A:** 8440

**Q:** Item: NC(=O)c1ccc2c(c1)[C@]13CCN(CC4CC4)[C@H](C2)[C@]1(O)C[C@@H](C(=O)NCCN1CCOCC1)C3 [Compound 119]
**A:** 13.4

// switching to the query molecule
**Q:** GET /values?readout=EC50&system=UniProtKB P35372&item= Cc1ccc(CNC(=O)[C@H]2C[C@]34CCN(CC5CC5)[C@H](Cc5ccc(C#N)cc53)[C@]4(O)C2)cc1 [Compound 121]
**A:** 1090

* * *

Hi there, I'd appreciate the recorded EC50 for every entry that follows.
experimental system: μ-opioid receptor (Homo sapiens (Human))
experiment description: μ-opioid receptor [35S]GTPγS functional assay, U-2 OS cells (Table 5)
Type: biochemical
test settings: μ GTP, bound given in μM

**Q:** Given NC(=O)[C@@H]1C[C@]23CCN(CC(F)(F)F)[C@H](Cc4ccc(O)cc42)[C@]3(O)C1 [Compound 75] , state its recorded EC50.
**A:** > 20 µM

**Q:** For NC(=O)[C@H]1C[C@]23CCN(CC(F)(F)F)[C@H](Cc4ccc(O)cc42)[C@]3(O)C1 [Compound 76] then?
**A:** > 20 µM

We now examine a further molecule.
**Q:** Using the record for COc1ccc2c(c1)[C@]13CCN(CC4CC4)[C@H](C2)[C@]1(O)C[C@H](N)C3 [Compound 21] , report its EC50.
**A:** > 20 µM

* * *

experimental system: recombinant human kappa opioid receptor (κ) (Homo sapiens (Human))
experiment description: κ-opioid receptor radioligand binding assay ([3H]-U69,593)
test settings: binding affinity
measurement kind: Ki (nM)
One number for each entry, in nM.

Guide cases for Ki, answers given:
**Q:** What value of Ki has been reported for the following compound? CN1CC[C@]23C[C@H](C(=O)NCCc4ccccc4)C[C@@]2(O)[C@H]1Cc1ccc(O)cc13 [Compound 108]
**A:** 9.29

**Q:** Queued: O=C(NCc1ccccc1)[C@@H]1C[C@]23CCN(CC4CC4)[C@H](Cc4ccc(O)cc42)[C@]3(O)C1 [Compound 33]
**A:** 0.75

**Q:** Same question for N=C(N)NCCNC(=O)[C@@H]1C[C@]23CCN(CC4CC4)[C@H](Cc4ccc(O)cc42)[C@]3(O)C1 [Compound 6] please.
**A:** 0.098

Hi there! I need Ki for each item below, if you can.
1. O=C(NCc1ccc(O)cc1O)[C@H]1C[C@]23CCN(CC4CC4)[C@H](Cc4ccc(O)cc42)[C@]3(O)C1 [Compound 42]
2. COc1ccc2c(c1)[C@]13CCN(CC4CC4)[C@H](C2)[C@]1(O)C[C@H](C(N)=O)C3 [Compound 11]
3. NC(=O)[C@@H]1C[C@]23CCN(CC4CC4)[C@H](Cc4ccc(O)cc42)[C@]3(O)C1 [Compound 31]
4. N=C(N)NCCCCNC(=O)[C@@H]1C[C@]23CCN(CC4CC4)[C@H](Cc4ccc(O)cc42)[C@]3(O)C1 [Compound 7]
5. O=C(O)[C@@H]1C[C@]23CCN(CC4CC4)[C@H](Cc4ccc(O)cc42)[C@]3(O)C1 [Compound 16]

**A:**
[0.37, 182, 0.84, 0.13, 17.3]
